# Experiment Summary: yeast display, Sf9 membrane polyspecificity reagent, FACS + sequencing; frameworks hold sequencing errors
Result Type: polyreactivity (PSR sort gate)

Please review the entries below; each comes with its answer.
QVQLVESGGGLVQAGGSLRLSCAASGRTFRGYAMGWYRQAPGKERELVAAISVTGSSTNYADSVKGRFTISRDNAKNTVYLQMNSLKPEDTAVYYCNAKRVRYSLSYDYWGQGTQVTVSS: high polyreactivity
QVQHVESGGGLVQAGGSLRLSCAASGSTFSYKVMGWYRQAPGKERELVAAISQSGGSTYYADSVKGRFTISRDNAKNTVYLHMNSLKPEDTAVYYCAAERRYYYGWGSFDYWGQGTQVTVSS: low polyreactivity
QVQLVESGGGLVQAGGSLRLSCAASGITFYSYAMGWYRQAPGKERELVAAISTTVGSTYYADSVKGRFTISRDNAKNTVYLQMNSLKPEDTAVYYCNAYRVYAWIEYNYWGQGTQVTVSS: low polyreactivity
QVQLVESGGGLDQAGGRLRLSCAASGITVGYNDMGRYRQARGKERELVAAINRGASTNYADSVKGRFTISRDNAKNTVYFQMNCLKPEDTAVYYCNADHRDTFIWVGLPHMDYWGQGTQVTVSS: low polyreactivity
QVQLVESGGGLVQAGGSLRLSCAASGSTFAYYAMGWYRQAPGKERELVARIRSSGVSTYYADSVKGRFTISRDNAKNTVYLQMNSLKPEDTAVYYCNKAYSGVRYDSWGQGTQVTVSS: low polyreactivity
QVQLVESGRGLVQAGGSLRLSCAASGGTFRTYAMAWYRQAPGKERELVAAISVSGGRTYYADSVKGRFTISRDNAKNTVYLQMNSLKPEDTAVYYCAAYWHGFFKYWEMGYWGQGTQVTVSS: high polyreactivity
QVQLVESGGGLVQSGGSLRLSCAASGSTFTSNTMGCYRQAPGKESEIVAGITWRGGSTYYADSVKGRFTISRDNAKNTVYLQMNSLKPEDTAVYYCAAYGYSKDVWNFYYWGQGTQVTVSS: low polyreactivity
QVQLVESGAGLVQAGGSLRLSCAASGSTFYGYGMGWYRQAPGKERELVAAITGSGDTTYYADSVKGRFTISRDNAKNTVYLQMNSLKPEDTAVYYCNARWHAEYDYWGQGTQVTVSS: low polyreactivity

// query polyreactivity (PSR sort gate) value for entry `QVQLVESVGGLGQARVRLRLSCAASGITFYRYAMGWYRQAPGKERELVAAITSRGTSTYYADSVKGRFTISRDNAKNTVYLQMNSLKPEDTAVYYCAAVLFVGDGGYDYWGQGTQVTVSS`
high polyreactivity

Please look up its polyreactivity (PSR sort gate): `QVQLVESGGGLVQEGGSLRLSCAACGRTFSWYAMGWYRQAPGKDRELVAAITSGGSTYYADSVKGRFTISRDNAMNTVYLQMNSLKPEDTAVYYCAAQAYVEGVYRYDYWGQGTQVTVSS`
low polyreactivity

Request the reported polyreactivity (PSR sort gate) associated with `QVQLEESGGGLVQAGGSLRLTCAASGSTSQIYAMGWYRQAPGKERELVAAINGVGSTNYADSVKGRFTISRDNAKNTVYLQMNSLKPEDTAVYYCAADGTALHEYLGDYDYWGQGTQVTVSS`
low polyreactivity

// polyreactivity (PSR sort gate) lookup, key: `QVQLVESGGGLVQAGGSLRLSCAASGGILNPNAMGWYRQAPGKERELVAAISNGGGTKYADSVKWRFTISRDNAKNTVYLQMNSLKPEDTAVYYCAARQWWSYDYWGKGTQVTVSS`
high polyreactivity
